- Tgt: Histone-lysine N-methyltransferase EZH2 (Homo sapiens, UniProt Q15910)
- Sequence (Q15910 whole entry): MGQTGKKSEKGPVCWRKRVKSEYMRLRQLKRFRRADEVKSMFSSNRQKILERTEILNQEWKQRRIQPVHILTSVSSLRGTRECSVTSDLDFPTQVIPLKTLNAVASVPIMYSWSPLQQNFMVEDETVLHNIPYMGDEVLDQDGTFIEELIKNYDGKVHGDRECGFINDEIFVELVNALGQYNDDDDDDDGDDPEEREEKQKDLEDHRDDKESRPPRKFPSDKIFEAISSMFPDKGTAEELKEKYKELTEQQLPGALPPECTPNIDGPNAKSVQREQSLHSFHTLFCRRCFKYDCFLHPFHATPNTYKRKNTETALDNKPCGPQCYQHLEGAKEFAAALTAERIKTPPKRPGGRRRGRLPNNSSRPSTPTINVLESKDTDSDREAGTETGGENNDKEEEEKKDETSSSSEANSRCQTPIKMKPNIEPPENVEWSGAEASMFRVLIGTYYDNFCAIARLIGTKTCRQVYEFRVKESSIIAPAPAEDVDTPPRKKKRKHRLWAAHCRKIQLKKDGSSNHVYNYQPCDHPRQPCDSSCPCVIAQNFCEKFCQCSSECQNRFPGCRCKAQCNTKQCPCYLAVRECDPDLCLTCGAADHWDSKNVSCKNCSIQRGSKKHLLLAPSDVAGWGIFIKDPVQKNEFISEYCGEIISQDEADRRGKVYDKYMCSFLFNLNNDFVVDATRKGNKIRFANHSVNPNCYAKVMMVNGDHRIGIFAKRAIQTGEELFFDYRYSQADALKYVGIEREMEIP
Under this convention, 1 (yes) denotes IC50 strictly below 20 nM and 0 (no) denotes IC50 at or above 20 nM.

Take a look at these entries with their results.
# Compound, Class assignment
rows = [
    ("CCN(c1cc(-c2ccc(CN3CCN(CCCCCOc4cccc5c4C(=O)N(C4CCC(=O)NC4=O)C5=O)CC3)cc2)cc(C(=O)NCc2c(C)cc(C)[nH]c2=O)c1C)C1CCOCC1 (stereo not given)", "1 (yes)"),
    ("CC[C@H](C)n1cc(C)c2c(C(=O)NCc3c(C)cc(C)[nH]c3=O)cc(-c3ccc(N4CCN(CCCCCCCCCCCOc5cccc6c5C(=O)N(C5CCC(=O)NC5=O)C6=O)CC4)nc3)cc21 (stereo not given in full)", "0 (no)"),
    ("CCN(c1cc(-c2ccc(CN3CCN(CCCCCCCCCCOc4cccc5c4C(=O)N(C4CCC(=O)NC4=O)C5=O)CC3)cc2)cc(C(=O)NCc2c(C)cc(C)[nH]c2=O)c1C)C1CCOCC1 (stereo not given)", "1 (yes)"),
]

Prompt: Does this compound meet the criterion IC50 < 20 nM? CCN(c1cc(-c2ccc(CN3CCN(CCCCCCCCCOc4cccc5c4C(=O)N(C4CCC(=O)NC4=O)C5=O)CC3)cc2)cc(C(=O)NCc2c(C)cc(C)[nH]c2=O)c1C)C1CCOCC1 (stereo not given)
Response: 1 (yes)

Prompt: Does this compound meet the criterion IC50 < 20 nM? CC[C@H](C)n1cc(C)c2c(C(=O)NCc3c(C)cc(C)[nH]c3=O)cc(-c3ccc(N4CCN(CCCCCCCOc5cccc6c5C(=O)N(C5CCC(=O)NC5=O)C6=O)CC4)nc3)cc21 (stereo not given in full)
Response: 1 (yes)

---

- Tested on: Pfeiffer
- Experimental protocol: Antiproliferative activity against human Pfeiffer cells harboring EZH2-A677G mutant assessed as inhibition of cell growth incubated for 3 to 7 days by optical microscopic analysis (Rvb= 0.49 uM)
- Format: functional, cell-based
Quantity name: pIC50
One number for each entry, as −log10 of the molar value.

Prompt: Look up pIC50: CCN(c1cc(-c2ccc(CN3CCN(CCCCCCCOc4cccc5c4C(=O)N(C4CCC(=O)NC4=O)C5=O)CC3)cc2)cc(C(=O)NCc2c(C)cc(C)[nH]c2=O)c1C)C1CCOCC1 (stereo unspecified)
Response: 6.68

---

Test system Histone-lysine N-methyltransferase EZH2 (Homo sapiens, UniProt Q15910), IC50 listed for each of the compounds.
Give bare numbers, in nM.

Examples with answers:
# Compound, IC50 / nM
data = [
    ("CCN(c1cc(-c2ccc(CN3CCN(CCCCCCCOc4cccc5c4C(=O)N(C4CCC(=O)NC4=O)C5=O)CC3)cc2)cc(C(=O)NCc2c(C)cc(C)[nH]c2=O)c1C)C1CCOCC1 (stereo not given)", 2.7),
    ("CCN(c1cc(-c2ccc(CN3CCN(CCCCOc4cccc5c4C(=O)N(C4CCC(=O)NC4=O)C5=O)CC3)cc2)cc(C(=O)NCc2c(C)cc(C)[nH]c2=O)c1C)C1CCOCC1 (stereo not given)", 3.7),
    ("CCN(c1cc(-c2ccc(CN3CCN(CCCCCCCCCCCCOc4cccc5c4C(=O)N(C4CCC(=O)NC4=O)C5=O)CC3)cc2)cc(C(=O)NCc2c(C)cc(C)[nH]c2=O)c1C)C1CCOCC1 (stereo not given)", 53),
    ("CC[C@H](C)n1cc(C)c2c(C(=O)NCc3c(C)cc(C)[nH]c3=O)cc(-c3ccc(N4CCN(CCCCCCOc5cccc6c5C(=O)N(C5CCC(=O)NC5=O)C6=O)CC4)nc3)cc21 (stereo not given in full)", 4),
]

For the next question, use this compound.
Prompt: Look up IC50: CC[C@H](C)n1cc(C)c2c(C(=O)NCc3c(C)cc(C)[nH]c3=O)cc(-c3ccc(N4CCN(CCCCCCCCOc5cccc6c5C(=O)N(C5CCC(=O)NC5=O)C6=O)CC4)nc3)cc21 (stereo not given in full)
Response: 7.3

---

Test system UniProt Q15910, pIC50 listed for each of the compounds.
Numbers only, as −log10 of the molar value.

Examples with answers:
# Compound, pIC50
rows = [
    ("CC[C@H](C)n1cc(C)c2c(C(=O)NCc3c(C)cc(C)[nH]c3=O)cc(-c3ccc(N4CCN(CCCCOc5cccc6c5C(=O)N(C5CCC(=O)NC5=O)C6=O)CC4)nc3)cc21 (stereo not given in full)", 8.26),
    ("CCN(c1cc(-c2ccc(CN3CCN(CCCCCCCOc4cccc5c4C(=O)N(C4CCC(=O)NC4=O)C5=O)CC3)cc2)cc(C(=O)NCc2c(C)cc(C)n(C)c2=O)c1C)C1CCOCC1 (stereo not given)", 7.63),
    ("CCN(c1cc(-c2ccc(CN3CCN(CCCCCCOc4cccc5c4C(=O)N(C4CCC(=O)NC4=O)C5=O)CC3)cc2)cc(C(=O)NCc2c(C)cc(C)[nH]c2=O)c1C)C1CCOCC1 (stereo not given)", 8.41),
    ("CC[C@H](C)n1cc(C)c2c(C(=O)NCc3c(C)cc(C)[nH]c3=O)cc(-c3ccc(N4CCN(CCCCCCCCCOc5cccc6c5C(=O)N(C5CCC(=O)NC5=O)C6=O)CC4)nc3)cc21 (stereo not given in full)", 7.80),
    ("CCN(c1cc(-c2ccc(CN3CCN(CCCCCCCCOc4cccc5c4C(=O)N(C4CCC(=O)NC4=O)C5=O)CC3)cc2)cc(C(=O)NCc2c(C)cc(C)[nH]c2=O)c1C)C1CCOCC1 (stereo not given)", 8.47),
    ("CCN(c1cc(-c2ccc(CN3CCN(CCCCCCCCCCCOc4cccc5c4C(=O)N(C4CCC(=O)NC4=O)C5=O)CC3)cc2)cc(C(=O)NCc2c(C)cc(C)[nH]c2=O)c1C)C1CCOCC1 (stereo not given)", 7.52),
    ("CC[C@H](C)n1cc(C)c2c(C(=O)NCc3c(C)cc(C)[nH]c3=O)cc(-c3ccc(N4CCN(CCCCCCCCCCOc5cccc6c5C(=O)N(C5CCC(=O)NC5=O)C6=O)CC4)nc3)cc21 (stereo not given in full)", 6.84),
    ("CC[C@H](C)n1cc(C)c2c(C(=O)NCc3c(C)cc(C)[nH]c3=O)cc(-c3ccc(N4CCN(CCCCCCCCCCCCOc5cccc6c5C(=O)N(C5CCC(=O)NC5=O)C6=O)CC4)nc3)cc21 (stereo not given in full)", 7.21),
]

Go through the list and state pIC50 for each entry.
1. CC[C@H](C)n1cc(C)c2c(C(=O)NCc3c(C)cc(C)[nH]c3=O)cc(-c3ccc(N4CCN(CCCCCOc5cccc6c5C(=O)N(C5CCC(=O)NC5=O)C6=O)CC4)nc3)cc21 (stereo not given in full)
2. CCN(c1cc(-c2ccc(CN3CCN(CCCCCCCOc4cccc5c4C(=O)N(C4CCC(=O)N(C)C4=O)C5=O)CC3)cc2)cc(C(=O)NCc2c(C)cc(C)[nH]c2=O)c1C)C1CCOCC1 (stereo not given)

Response:
1. 8.24
2. 8.71
